B1: library; a variant is named by its letters at N, in order (parent)
chain: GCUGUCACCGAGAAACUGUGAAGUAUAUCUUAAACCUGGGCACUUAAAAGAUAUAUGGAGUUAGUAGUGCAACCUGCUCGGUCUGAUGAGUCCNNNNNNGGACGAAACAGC

Variants of: B1
Assay: FACS-Seq fitted mean relative fluorescence mCherry/BFP without ligand (log10 relative fluorescence); HEK293T; ligand: cyclic di-GMP (c-di-GMP-II aptamer); higher = higher reporter protein expression
Conditions: ligand present: no
Listed below: FACS-Seq fitted mean (log10) values for each entry.
API doc: respond with a numeric literal and nothing else, no unit.

Reported FACS-Seq fitted mean (log10) ( CCUCAG ) = -0.325

Documented FACS-Seq fitted mean (log10) of GUACGG : 0.00232

FACS-Seq fitted mean (log10) measured on AAAGGG = -0.506

Recorded result, AACCCU , FACS-Seq fitted mean (log10): 0.095

variant CCGGUU , FACS-Seq fitted mean (log10) observed: -0.109

Entry under test: AGCACU . Its FACS-Seq fitted mean (log10) was 0.129

Others:
# FACS-Seq fitted mean (log10) (variant: UUACCC ) is -0.256

GAUUGG has a reported FACS-Seq fitted mean (log10) of -0.22

Lab note: UUUCGA gave FACS-Seq fitted mean (log10) of 0.0382

Entry under test: CACCCU . Its FACS-Seq fitted mean (log10) was -0.383

The measured FACS-Seq fitted mean (log10) associated with CGCCUC reads 0.0848

The value of FACS-Seq fitted mean (log10) measured for the variant UAGGGA turned out to be -0.172

Consider UAUUAC . Its measured FACS-Seq fitted mean (log10) is -0.992

Recorded FACS-Seq fitted mean (log10) (variant CGGGUA ): -0.076
